- tested_system: GDP-bound KRAS wild-type protein (Homo sapiens, UniProt P01116)
- Sequence (P01116 1-188 isoform P01116-2): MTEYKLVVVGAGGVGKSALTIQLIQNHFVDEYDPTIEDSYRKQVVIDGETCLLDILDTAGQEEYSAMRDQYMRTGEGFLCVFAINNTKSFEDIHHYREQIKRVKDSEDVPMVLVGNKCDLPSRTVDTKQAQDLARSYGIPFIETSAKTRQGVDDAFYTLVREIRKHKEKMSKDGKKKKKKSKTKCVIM
- measurement_description: Binding to KRAS by surface plasmon resonance (SPR), dissociation constant KD
- condition_details: 1:1 binding model
Where a SMILES comes first, the peptide text is derived from it. Bridges are numbered along the chain shown (N, C = ends). [ ]: non-standard residue; d: D form. The star is where a group is joined. hPhe(3-Cl-4-CF3) = N[C@@H](CCc1ccc(C(F)(F)F)c(Cl)c1)C(=O)O; NPrPhe(4-CF3) = CCCN[C@@H](Cc1ccc(C(F)(F)F)cc1)C(=O)O; NMeGly(cPent) = CN[C@H](C(=O)O)C1CCCC1; NMeF = CN[C@@H](Cc1ccccc1)C(=O)O; NMeD = CN[C@@H](CC(=O)O)C(=O)O; NMeL = CN[C@@H](CC(C)C)C(=O)O; Morpholide = C1CN(*)CCO1; Ac5c = NC1(C(=O)O)CCCC1; Aze = O=C(O)[C@@H]1CCN1; Sar = CNCC(=O)O
Label 1 (yes) when Kd is strictly below 0.6 nM; at or above that, label 0 (no).

CCC(CC)[C@H]1C(=O)N(C)[C@H](C(=O)N(C)C)CC(=O)N(C)[C@@H](COC)C(=O)N[C@@H]([C@@H](C)CC)C(=O)N(C)CC(=O)N(C)[C@H]2C/C=C\CCN(C2=O)[C@@H](Cc2ccc(C(F)(F)F)cc2)C(=O)N(C)CC(=O)N[C@@H](CCc2ccc(Cl)c(Cl)c2)C(=O)N2C[C@H](OC3CCCC3)C[C@H]2C(=O)NC2(CC(C)(C)C2)C(=O)N1C | 0 (no)
CCO[C@@H]1C[C@H]2C(=O)NC3(CC(C)(C)C3)C(=O)N(C)[C@@H](C3CCCC3)C(=O)N(C)[C@H](C(=O)N(C)C)CC(=O)N(C)[C@@H]([C@H](C)OC)C(=O)N[C@@H]([C@@H](C)CC)C(=O)N(C3CC3)CC(=O)N(C)[C@H]3C/C=C\CCN(C3=O)[C@@H](Cc3ccc(C(F)(F)F)cc3)C(=O)N(C)CC(=O)N[C@@H](CCc3ccc(C(F)(F)F)c(Cl)c3)C(=O)N2C1 | 1 (yes)
CCO[C@@H]1C[C@H]2C(=O)NC3(CC(C)(C)C3)C(=O)N(C)[C@@H](C3CCCC3)C(=O)N(C)[C@H](C(=O)N(CC)CC)CC(=O)N(C)[C@@H](COC)C(=O)N[C@@H]([C@@H](C)CC)C(=O)N(C)CC(=O)N(C)[C@H]3C/C=C\CCN(C3=O)[C@@H](Cc3ccc(C)cc3)C(=O)N(C)CC(=O)N[C@@H](CCc3cc(F)c(C(F)(F)F)c(F)c3)C(=O)N2C1 | 1 (yes)

Input line: API: query returns whether the compound falls strictly under 0.6 nM in Kd. Query: CCOC[C@H]1C(=O)N[C@@H]([C@@H](C)CC)C(=O)N(C)CC(=O)N(C)[C@H]2C/C=C\CCN(C2=O)[C@@H](CC2CCC(F)(F)CC2)C(=O)N(C)CC(=O)N[C@@H](CCc2cc(F)c(C(F)(F)F)c(F)c2)C(=O)N2C[C@H](OCC)C[C@H]2C(=O)NC2(CC(C)(C)C2)C(=O)N(C)[C@@H](C(CC)CC)C(=O)N(C)[C@H](C(=O)N(C)C)CC(=O)N1C
Output line: 1 (yes)

Input line: API: query returns whether the compound falls strictly under 0.6 nM in Kd. Query: CCC[C@H]1C(=O)N[C@@H]([C@@H](C)CC)C(=O)N(C2CC2)CC(=O)N(C)[C@H]2C/C=C\CCN(C2=O)[C@@H](Cc2ccc(C)cc2)C(=O)N(C)CC(=O)N[C@@H](CCc2cc(F)c(C(F)(F)F)c(F)c2)C(=O)N2C[C@H](OC(C)C)C[C@H]2C(=O)NC2(CC(C)(C)C2)C(=O)N(C)[C@@H](C2CCCC2)C(=O)N(C)[C@H](C(=O)N(C)C)CC(=O)N1C
Output line: 1 (yes)

Input line: API: query returns whether the compound falls strictly under 0.6 nM in Kd. Query: CCO[C@@H]1C[C@H]2C(=O)NC3(CCC3)C(=O)N(C)[C@@H](C3CCCC3)C(=O)N(C)[C@H](C(=O)N(C)C)CC(=O)N(C)[C@@H](CC3CCCC3)C(=O)N[C@@H]([C@@H](C)CC)C(=O)N(C)CC(=O)N(C)[C@H]3C/C=C\CCN(C3=O)[C@@H](Cc3ccc(C)cc3)C(=O)N(C)CC(=O)N[C@@H](CCc3ccc(C(F)(F)F)c(C4CC4)c3)C(=O)N2C1
Output line: 1 (yes)

Input line: API: query returns whether the compound falls strictly under 0.6 nM in Kd. Query: CCC[C@H]1C(=O)N[C@@H]([C@@H](C)CC)C(=O)N(C2CC2)CC(=O)N(C)[C@H]2C/C=C\CCN(C2=O)[C@@H](Cc2ccc(C(F)(F)F)cc2)C(=O)N(C)CC(=O)N[C@@H](CCc2cc(F)c(C(F)(F)F)c(F)c2)C(=O)N2C[C@H](OCC)C[C@H]2C(=O)NC2(CC(C)(C)C2)C(=O)N(C)[C@@H](CC(C)(C)C)C(=O)N(C)[C@H](C(=O)N(C)C)CC(=O)N1C
Output line: 1 (yes)

Input line: API: query returns whether the compound falls strictly under 0.6 nM in Kd. Query: CCC[C@H]1C(=O)N[C@@H]([C@@H](C)CC)C(=O)N(C2CC2)CC(=O)N(C)[C@H]2C/C=C\CCN(C2=O)[C@@H](Cc2ccc(C)cc2)C(=O)N(C)CC(=O)N[C@@H](CCc2ccc(Cl)c(Cl)c2)C(=O)N2C[C@H](OCC)C[C@H]2C(=O)NC2(CC(C)(C)C2)C(=O)N(C)[C@@H](CC(C)(C)C)C(=O)N(C)[C@H](C(=O)N(C)C)CC(=O)N1C
Output line: 0 (no)

Input line: API: query returns whether the compound falls strictly under 0.6 nM in Kd. Query: CCCN1C(=O)[C@@H]2CCN2C(=O)[C@H](Cc2ccccc2)N(C)C(=O)[C@H]([C@@H](C)CC)NC(=O)[C@H](CC(C)C)N(C)C(=O)C[C@@H](C(=O)N2CCOCC2)N(C)C(=O)[C@H](C2CCCC2)N(C)C(=O)C2(CCCC2)NC(=O)[C@@H]2CCCN2C(=O)[C@H](CCc2ccc(C(F)(F)F)c(Cl)c2)NC(=O)CN(C)C(=O)[C@@H]1Cc1ccc(C(F)(F)F)cc1 [PP0209] ([NMeL]I[NMeF][Aze][NPrPhe(4-CF3)][Sar][hPhe(3-Cl-4-CF3)]P[Ac5c][NMeGly(cPent)][NMeD]-Morpholide; lactam N-11)
Output line: 0 (no)

Input line: API: query returns whether the compound falls strictly under 0.6 nM in Kd. Query: CCC[C@H]1C(=O)N[C@@H](C2CCCC2)C(=O)N(C)CC(=O)N(C)[C@H]2C/C=C\CCN(C2=O)[C@@H](Cc2ccc(C)cc2)C(=O)N(C)CC(=O)N[C@@H](CCc2ccc(C(F)(F)F)c(OC)c2)C(=O)N2C[C@H](OCC)C[C@H]2C(=O)NC2(CC(C)(C)C2)C(=O)N(C)[C@@H](CC(C)(C)C)C(=O)N(C)[C@H](C(=O)N(C)C)CC(=O)N1C
Output line: 1 (yes)

Input line: API: query returns whether the compound falls strictly under 0.6 nM in Kd. Query: CCCC[C@H]1C(=O)N[C@@H]([C@@H](C)CC)C(=O)N(C)CC(=O)N(C)[C@H]2C/C=C\CCN(C2=O)[C@@H](Cc2ccc(C)cc2)C(=O)N(C)CC(=O)N[C@@H](CCc2cc(F)c(C(F)(F)F)c(F)c2)C(=O)N2C[C@H](OCC)C[C@H]2C(=O)NC2(CC(C)(C)C2)C(=O)N(C)[C@@H](C2CCCC2)C(=O)N(C)[C@H](C(=O)N(C)C)CC(=O)N1C
Output line: 1 (yes)

---

Each item that follows carries a reported Kd.
- tested_system: GDP-bound KRAS wild-type protein (Homo sapiens, UniProt P01116)
- measurement_description: Binding to KRAS by surface plasmon resonance (SPR), dissociation constant KD
- condition_details: Single Cycle Kinetics, 1:1 binding model
Answer with the figure and its unit, nothing else.

Example cases with answers are listed next.
CCO[C@@H]1C[C@H]2C(=O)NC3(CCC3)C(=O)N(C)[C@@H](C3CCCC3)C(=O)N(C)[C@H](C(=O)N3CCOCC3)CC(=O)N(C)[C@@H](C)C(=O)N[C@@H]([C@@H](C)CC)C(=O)N(C)CC(=O)N(C)[C@H]3CCCCCN(C3=O)[C@@H](Cc3ccc(F)cc3)C(=O)N(C)CC(=O)N[C@@H](CCc3cc(F)c(C(F)(F)F)c(F)c3)C(=O)N2C1 [PP1175] | 0.16 nM
CCO[C@@H]1C[C@H]2C(=O)NC3(CCC3)C(=O)N(C)[C@@H](C3CCCC3)C(=O)N(C)[C@H](C(=O)N3CCCC3)CC(=O)N(C)[C@@H](CC(C)C)C(=O)N[C@@H]([C@@H](C)CC)C(=O)N(C)CC(=O)N(C)[C@H]3C/C=C\CCN(C3=O)[C@@H](Cc3ccc(C(F)(F)F)cc3)C(=O)N(C)CC(=O)N[C@@H](CCc3cc(F)c(C(F)(F)F)c(F)c3)C(=O)N2C1 [PP1295] | 0.12 nM

Input line: Under GDP-bound KRAS wild-type protein (Homo sapiens, UniProt P01116): Kd value of CCO[C@@H]1C[C@H]2C(=O)NC3(CCC3)C(=O)N(C)[C@@H](C(CC)CC)C(=O)N(C)[C@H](C(=O)N(C)C)CC(=O)N(C)[C@@H](C)C(=O)N[C@@H]([C@@H](C)CC)C(=O)N(C)CC(=O)N(C)[C@H]3C/C=C\CCN(C3=O)[C@@H](Cc3ccc(C(F)(F)F)cc3)C(=O)N(C)CC(=O)N[C@@H](CCc3cc(F)c(C(F)(F)F)c(F)c3)C(=O)N2C1 [PP1199] ?
Output line: 0.17 nM

Input line: Under GDP-bound KRAS wild-type protein (Homo sapiens, UniProt P01116): Kd value of CCO[C@@H]1C[C@H]2C(=O)NC3(CCC3)C(=O)N(C)[C@@H](C3CCCC3)C(=O)N(C)[C@H](C(=O)N(C)C)CC(=O)N(C)[C@@H](CC(C)C)C(=O)N[C@@H]([C@@H](C)CC)C(=O)N(C)CC(=O)N(C)[C@H]3C/C=C\CCN(C3=O)[C@@H](Cc3ccc(F)cc3C)C(=O)N(C)CC(=O)N[C@@H](CCc3ccc(Cl)c(Cl)c3)C(=O)N2C1 [PP1480] ?
Output line: 0.92 nM

Input line: Under GDP-bound KRAS wild-type protein (Homo sapiens, UniProt P01116): Kd value of CC[C@H](C)[C@@H]1NC(=O)[C@H](CC(C)C)N(C)C(=O)C[C@@H](C(=O)N2CCOCC2)N(C)C(=O)[C@H](C2CCCC2)N(C)C(=O)[C@](C)(CC)NC(=O)[C@@H]2CCCN2C(=O)[C@H](CCc2cc(F)c(C(F)(F)F)c(F)c2)NC(=O)CN(C)C(=O)[C@H](Cc2ccc(C(F)(F)F)cc2)N2CCCCC[C@@H](C2=O)N(C)C(=O)CN(C)C1=O [PP0500] ?
Output line: 18 nM

Input line: Under GDP-bound KRAS wild-type protein (Homo sapiens, UniProt P01116): Kd value of CCO[C@@H]1C[C@H]2C(=O)NC3(CCC3)C(=O)N(C)[C@@H](C3CCCC3)C(=O)N(C)[C@H](C(=O)N(C)C)CC(=O)N(C)[C@@H](Cc3ccc(Cl)c(Cl)c3)C(=O)N[C@@H]([C@@H](C)CC)C(=O)N(C)CC(=O)N(C)[C@H]3CCCCCN(C3=O)[C@@H](Cc3ccc(F)cc3)C(=O)N(C)CC(=O)N[C@@H](CCc3cc(F)c(C(F)(F)F)c(F)c3)C(=O)N2C1 [PP1158] ?
Output line: 0.18 nM
